Data origin, for the record: patent US7998940B2

Would you mind telling me the reported Screen- Rabbit/No Protein of each entry?
# Tested on: rabbit vWF A1 domain (SEQ ID NO 6)
# Sequence (as listed by the source): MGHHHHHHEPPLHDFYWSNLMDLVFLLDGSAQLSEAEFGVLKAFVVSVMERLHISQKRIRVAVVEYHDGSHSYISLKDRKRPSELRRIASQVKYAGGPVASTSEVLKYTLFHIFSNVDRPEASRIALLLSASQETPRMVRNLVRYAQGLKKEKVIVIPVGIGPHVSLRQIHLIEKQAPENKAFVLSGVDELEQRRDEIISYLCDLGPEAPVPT
# Experiment Description: 3-point dot blot screen, rabbit vWF A1 domain
# Format: binding
# Conditions Used: rRdY aptamers; 100 nM rabbit vWF A1 domain; ratio of fraction bound with target to without
Oligonucleotides are written 5' to 3', each unit as a sugar letter and its base; * is a phosphorothioate linkage, no mark a phosphodiester; rarer units and linkages stand in square brackets, end groups in braces. Plain capitals give the bases only. d = 2'-deoxy (DNA); r = 2'-OH (RNA)
A bare number is all that is needed in reply.

Which Screen- Rabbit/No Protein reading was recorded for the molecule AMX205.H10: rRdY aptamer clone (nucleic acid) rGrGrArGdCrGdCrAdCdTdCrArGdCdCrAdCdTrGdTdTrGdCdCrGrAdCrGrGdTrGrAdTrGdTrAdTdTrArAdCrGdCrGrGrGdCrArAdCrGdTdTrGrGdTrGdTdTdTdCrGrAdCdCdTdCdTdCdTrGdCdTrArGdC ?
2.47

Which Screen- Rabbit/No Protein reading was recorded for the molecule AMX205.H9: rRdY aptamer clone (nucleic acid) rGrGrArGdCrGdCrAdCdTdCrArGdCdCrAdCrGrAdCrGrGdTrGrAdTrGrGrAdTdTrArGdCrGdCrGrGdTrGrGrArGrArArGrAdTrGdCrGdCdTrGdTdTrGdTdTdTdCrGrAdCdCdTdCdTdCdTrGdCdTrArGdC ?
3.14
